# assay-details: in vivo
# condition-context: male, New Zealand white, rabbit, 1.5 ug
property-name: AUC (ng·h/mL)
Write it as a number; the unit ng·h/mL goes unstated.

### Prompt Complete the entry with AUC for "COc1ccc([C@@H]2CC(=O)c3c(O)cc(O)cc3O2)cc1O"
### Response 2980

----------
# assay-details: in vivo
# condition-context: male, New Zealand white, rabbit, 1.5 ug
property-name: Cmax (ng/mL)
Reply numerically in ng/mL, unit not repeated.

### Prompt Consider the molecule "COc1ccc([C@@H]2CC(=O)c3c(O)cc(O)cc3O2)cc1O" and give its recorded Cmax.
### Response 1020

----------
# assay-details: in vivo
# condition-context: male, New Zealand white, rabbit, 1.5 ug, T1/2
property-name: half-life (h)
# number only, unit h dropped from output

### Prompt Specify half-life for "COc1ccc([C@@H]2CC(=O)c3c(O)cc(O)cc3O2)cc1O" and stop.
### Response 1.83

----------
# assay-details: in vivo
# condition-context: male, New Zealand white, rabbit, 4.5 ug, CL
property-name: clearance (mL/min)
Give a bare numeral; the unit mL/min is implied.

### Prompt Hello, please tell me recorded clearance for this one: "COc1ccc([C@@H]2CC(=O)c3c(O)cc(O)cc3O2)cc1O"
### Response 0.0096

----------
# assay-details: in vivo
# condition-context: male, New Zealand white, rabbit, 15 ug, T1/2
property-name: half-life

### Prompt Annotate the compound COc1ccc([C@@H]2CC(=O)c3c(O)cc(O)cc3O2)cc1O [hesperetin, Hesperetin] with its measured half-life.
### Response 1.38 h

----------
# assay-details: in vivo
# condition-context: male, New Zealand white, rabbit, 15 ug
property-name: AUC

### Prompt Please report AUC for the following compound: COc1ccc([C@@H]2CC(=O)c3c(O)cc(O)cc3O2)cc1O [hesperetin, Hesperetin]
### Response 29100 ng·h/mL

----------
# assay-details: in vivo
# condition-context: male, New Zealand white, rabbit, 1.5 ug, CL
property-name: clearance (mL/min)
Could you give me the number in mL/min? Just the number is fine.

### Prompt Give a short answer stating reported clearance for COc1ccc([C@@H]2CC(=O)c3c(O)cc(O)cc3O2)cc1O [hesperetin, Hesperetin] .
### Response 0.0093

----------
# assay-details: in vivo
# condition-context: male, New Zealand white, rabbit, 15 ug
property-name: Cmax (ng/mL)
Numbers only; they are read as ng/mL.

### Prompt Determine its reported Cmax: "COc1ccc([C@@H]2CC(=O)c3c(O)cc(O)cc3O2)cc1O"
### Response 14700

----------
# assay-details: in vivo
# condition-context: male, New Zealand white, rabbit, 4.5 ug
property-name: Cmax (ng/mL)
Enter your answer as a number in ng/mL; do not include the unit.

### Prompt Supply measured Cmax of COc1ccc([C@@H]2CC(=O)c3c(O)cc(O)cc3O2)cc1O [hesperetin, Hesperetin] in your reply.
### Response 4510

----------
# assay-details: in vivo
# condition-context: male, New Zealand white, rabbit, 4.5 ug, T1/2
property-name: half-life (h)
The reply should be a number in h, with the unit left off.

### Prompt Annotate the compound "COc1ccc([C@@H]2CC(=O)c3c(O)cc(O)cc3O2)cc1O" with its measured half-life.
### Response 1.48

----------
# assay-details: in vivo
# condition-context: male, New Zealand white, rabbit
property-name: Vd

### Prompt Give recorded Vd. COc1ccc([C@@H]2CC(=O)c3c(O)cc(O)cc3O2)cc1O [hesperetin, Hesperetin]
### Response 0.001 to 0.0015 L

All figures here come from paper PMC4157643.
